test.details: Cytotoxicity (CC50) alongside HCV GT1b replicon assay
study.conditions: HCV GT1b (Con1) replicon cells
measure.name: CC50

Record CCOC(=O)[C@H](C)NP(=O)(OC[C@@]1(N=[N+]=[N-])O[C@@H](n2ccc(=O)[nH]c2=O)[C@H](O)[C@@H]1O)Oc1cccc2ccccc12 (stereo partly drawn) [Compound I-3] . Reported CC50: > 100 µM

Record C[C@H](NP(=O)(OC[C@@]1(N=[N+]=[N-])O[C@@H](n2ccc(=O)[nH]c2=O)[C@H](O)[C@@H]1O)Oc1cccc2ccccc12)C(=O)OCc1ccccc1 (stereo partly drawn) [Compound I-1] . Reported CC50: > 10 µM

Record [N-]=[N+]=N[C@]1(CO)O[C@@H](n2ccc(=O)[nH]c2=O)[C@H](O)[C@@H]1O [Compound 4AU, 4′-azidouridine] . Reported CC50: > 1000 µM
